system: sugar beet; test: Test B pre/postemergence sugar beet; format: in vivo, Beta vulgaris; settings: Preemergence, Rate 500 g/ha; scale of 0 to 10 where 0 is no effect and 10 is complete control
Could you please report measured Sugarbeets plant response rating for the items listed next?
Please respond with just the number, no unit label.

Record CC(C)N(C(=O)n1oc(=O)n(C2CC2)c1=O)c1ccc(F)cc1F [Compound 299] , field Sugarbeets plant response rating: 10

Sample CC(C)N(C(=O)n1oc(=O)n(N2CCOCC2)c1=O)c1ccc(F)cc1F [Compound 384] ; Sugarbeets plant response rating observed: 2

Record COCCOCn1c(=O)on(C(=O)N(c2ccccc2)C(C)C)c1=O [Compound 564] . Reported Sugarbeets plant response rating: 3

Just so you know, measured Sugarbeets plant response rating for CC(C)N(C(=O)n1oc(=O)n(CC2=CCCCC2)c1=O)c1ccccc1 [Compound 496] came out at 0
